Listing of recorded EC (Emax) by entry.
tested on: HEP-G2 cells; assay: cells; details: Homo sapiens, HepG2, read-out: HEP-G2 Emax (μM), HEP-G2 cells, concentration at which Emax is achieved (CEmax)
Please give a number only; it is taken to be in µM.

Give the observed EC (Emax) of Cc1c(Cl)cc(C(C)(C)C)c(O)c1C(=O)Nc1ccc([N+](=O)[O-])cc1C(F)(F)F for HEP-G2 cells.
0.1

Give the observed EC (Emax) of O=C(Nc1cc(C(F)(F)F)cc(C(F)(F)F)c1)c1ccc(C(F)(F)F)c(F)c1 for HEP-G2 cells.
10

Give the observed EC (Emax) of CCCC[P+](CCCC)(CCCC)Cc1cc(C(C)(C)C)c(O)c(C(C)(C)C)c1.[Br-] for HEP-G2 cells.
10

Give the observed EC (Emax) of Cc1c(Cl)cc(C(C)(C)C)c(O)c1C(=O)Nc1ccc([N+](=O)[O-])c(C(F)(F)F)c1 for HEP-G2 cells.
3

Give the observed EC (Emax) of N#CC(C#N)=Cc1c(Cl)[nH]c2ccccc12 for HEP-G2 cells.
10

Give the observed EC (Emax) of Cc1c(Cl)cc(C(C)(C)C)c(O)c1C(=O)Nc1ccc(Cl)c(C(F)(F)F)c1 for HEP-G2 cells.
10

Give the observed EC (Emax) of CC(C)(C)c1cc(C=C2C(=O)c3ccccc3C2=O)cc(C(C)(C)C)c1O for HEP-G2 cells.
3

Give the observed EC (Emax) of CC(C)(C)c1cc(/C=C(\C#N)c2cc(C(F)(F)F)cc(C(F)(F)F)c2)cc(C(C)(C)C)c1O for HEP-G2 cells.
3

====

Listing of recorded EC (Emax) by entry.
system: HEP-G2 cells; assay: cells; conditions: Homo sapiens, HepG2, read-out: HEP-G2 Emax (μM), HEP-G2 cells, concentration at which Emax is achieved (CEmax)
Please append the unit to your numeric answer.

Consider the worked cases shown below.
- molecule: "O=C(Nc1cc(C(F)(F)F)cc(C(F)(F)F)c1)c1cc(F)cc(C(F)(F)F)c1 [Example 64]"
  readout-name: "EC (Emax)"
  reported-result: "10 µM"
- molecule: "CC(C)(C)c1cc(/C=C(\\C#N)c2ccccn2)cc(C(C)(C)C)c1O [Example 74]"
  readout-name: "EC (Emax)"
  reported-result: "100 µM"
- molecule: "N#CC(C#N)=Cc1c[nH]c2ccc(Cl)cc12 [Example 30]"
  readout-name: "EC (Emax)"
  reported-result: "100 µM"
- molecule: "N#CC(C#N)=Cc1c(-c2ccc(Cl)cc2)[nH]c2ccccc12 [Example 19]"
  readout-name: "EC (Emax)"
  reported-result: "100 µM"
- molecule: "CCOC(=O)/C(C#N)=C(/C)c1cc(C(C)(C)C)c(O)c(C(C)(C)C)c1 [Example 82]"
  readout-name: "EC (Emax)"
  reported-result: "30 µM"
- molecule: "Cc1c(Cl)cc(C(C)(C)C)c(O)c1C(=O)Nc1cc(C(F)(F)F)cc(C(F)(F)F)c1 [Example 47]"
  readout-name: "EC (Emax)"
  reported-result: "10 µM"

Name the recorded EC (Emax) of the item CC(=O)c1ccc(O)c([N+](=O)[O-])c1 [Example 3, 4-Hydroxy-3-Nitroacetophenone] in your answer.
1000 µM

Name the recorded EC (Emax) of the item COc1ccc(O)c([N+](=O)[O-])c1 [Example 2, 4-Methoxy-2-Nitrophenol] in your answer.
1000 µM

Name the recorded EC (Emax) of the item CCOC(=O)C(=Cc1cc(C(C)(C)C)c(O)c(C(C)(C)C)c1)C(=O)OCC [Example 16] in your answer.
100 µM

Name the recorded EC (Emax) of the item Cc1c(Br)cc(C(C)(C)C)c(O)c1C(=O)Nc1cc(C(F)(F)F)ccc1Cl [Example 52] in your answer.
10 µM

Name the recorded EC (Emax) of the item Cc1c(Br)cc(C(C)(C)C)c(O)c1C(=O)Nc1ccc(C(C)C)cc1C(F)(F)F [Example 63] in your answer.
100 µM

Name the recorded EC (Emax) of the item Cc1cc(C)c2[nH]cc(C=C(C#N)C#N)c2c1 [Example 28] in your answer.
300 µM

Name the recorded EC (Emax) of the item Cc1c(Br)cc(C(C)(C)C)c(O)c1C(=O)Nc1ccc([N+](=O)[O-])cc1Cl [Example 37] in your answer.
1 µM

Name the recorded EC (Emax) of the item CC(C)(C)c1cc(/C=C(\C#N)c2ccc([N+](=O)[O-])cc2)cc(C(C)(C)C)c1O [Example 77] in your answer.
3 µM

Name the recorded EC (Emax) of the item Cc1ccc(C(C)C)c(O)c1C(=O)Nc1ccc([N+](=O)[O-])cc1Cl [Example 39] in your answer.
10 µM

Name the recorded EC (Emax) of the item N#CC(C#N)=NNc1ccc(OC(F)(F)F)cc1 [Example 27, reference compound] in your answer.
30 µM

Name the recorded EC (Emax) of the item N#CC(C#N)=Cc1c[nH]c2ccc(Br)cc12 [Example 29] in your answer.
30 µM

Name the recorded EC (Emax) of the item Cc1c(Br)cc(C(C)(C)C)c(O)c1C(=O)Nc1cc(C(F)(F)F)ccc1C(F)(F)F [Example 61] in your answer.
10 µM
